Source of measurements: the supplement of paper PMC8612539

- System: Pasteurella multocida
- MEASUREMENT NOTES: minimum inhibitory concentration (MIC)
- CONDITION SUMMARY: isolate (source animal id): 307
Please go through the items and note down their minimum inhibitory concentration.

Give minimum inhibitory concentration for each listed item.
1. CC[C@H]1OC(=O)C[C@@H](O)[C@H](C)[C@@H](O[C@@H]2O[C@H](C)[C@@H](O)[C@H](N(C)C)[C@H]2O)[C@@H](CCN2CCCCC2)C[C@@H](C)C(=O)/C=C/C(C)=C/[C@@H]1CN1CCCCC1
2. CS(=O)(=O)c1ccc([C@@H](O)[C@@H](CF)NC(=O)C(Cl)Cl)cc1
3. CN1C[C@@H]2C[C@H]1CN2c1cc2c(cc1F)c(=O)c(C(=O)O)cn2C1CC1
4. NC[C@@H]1O[C@H](O[C@H]2[C@@H](O)[C@H](O[C@@H]3[C@@H](O)[C@H](N)C[C@H](N)[C@H]3O[C@H]3O[C@H](CN)[C@@H](O)[C@H](O)[C@H]3N)O[C@@H]2CO)[C@H](N)[C@@H](O)[C@@H]1O
5. CC1(C)S[C@@H]2[C@H](NC(=O)[C@H](N)c3ccccc3)C(=O)N2[C@H]1C(=O)O
6. CO/N=C(\C(=O)N[C@@H]1C(=O)N2C(C(=O)O)=C(CSC(=O)c3ccco3)CS[C@H]12)c1csc(N)n1
7. CC[C@H]1OC(=O)C[C@@H](O)[C@H](C)[C@@H](O[C@@H]2O[C@H](C)[C@@H](O)[C@H](N(C)C)[C@H]2O)[C@@H](CCN2C[C@H](C)C[C@H](C)C2)C[C@@H](C)C(=O)/C=C/C(C)=C/[C@@H]1CO[C@@H]1O[C@H](C)[C@@H](O)[C@@H](OC)[C@H]1OC
8. CN[C@@H]1[C@H](O)[C@H](NC)[C@H]2O[C@@]3(O)C(=O)C[C@@H](C)O[C@H]3O[C@@H]2[C@H]1O

Result:
["> 16 µg/mL", "> 8 µg/mL", "≤ 0.12 µg/mL", "> 32 µg/mL", "≤ 0.25 µg/mL", "≤ 0.25 µg/mL", "> 16 µg/mL", "32 µg/mL"]
